Reference for the values: the Human Domainome abundance scans (Beltran et al. 2025)

B1: Zinc finger homeobox protein 3, residues 2643 to 2698; numbered along this chain, Q15911 (parent)
chain: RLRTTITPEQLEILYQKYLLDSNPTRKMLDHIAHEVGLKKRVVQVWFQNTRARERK

variants of: B1; assay: abundance fitness (aPCA) (normalised: wild type 0, dead -1); higher = more abundant; growth selection in yeast, the domain comes from the species named; settings: Homo sapiens
Classification by abundance fitness follows these ranges: LOW = under -0.3, MEDIUM = from -0.3 up to -0.06, HIGH = -0.06 and over

(Q) Please indicate the class for RLRTTITPEQLEILYQKYLLDSNPTRKMLDHIQHEVGLKKRVVQVWFQNTRARERK [A33Q] based on its abundance fitness.
(A) LOW

(Q) How about this variant: RLRTTITPEQLEILYQKYLLDSNPTRKMLDHIAHENGLKKRVVQVWFQNTRARERK [V36N]
(A) LOW

(Q) How about this variant: RLRTTITPEQLEILYQKYLLDSNPTRKMLDHIAHEVGLKKRVVQVWFYNTRARERK [Q48Y]
(A) MEDIUM

(Q) How about this variant: RLRTTITPEQLEALYQKYLLDSNPTRKMLDHIAHEVGLKKRVVQVWFQNTRARERK [I13A]
(A) MEDIUM

(Q) How about this variant: RLRTTITPEQLEILYQKYLLDCNPTRKMLDHIAHEVGLKKRVVQVWFQNTRARERK [S22C]
(A) MEDIUM

(Q) How about this variant: RLRTTITPEQLEILYQKYLLDSNPTRKMLDHIAHEVGLKKRVVQVWFQTTRARERK [N49T]
(A) HIGH

(Q) How about this variant: RLRTTITPEQEEILYQKYLLDSNPTRKMLDHIAHEVGLKKRVVQVWFQNTRARERK [L11E]
(A) HIGH

(Q) How about this variant: RLRTTITPEQLEILYQKDLLDSNPTRKMLDHIAHEVGLKKRVVQVWFQNTRARERK [Y18D]
(A) LOW

(Q) How about this variant: RLRTTITPEQLEILYQKYLLDSNPTRKMLDHIAHEVGLKKRVVKVWFQNTRARERK [Q44K]
(A) MEDIUM

(Q) How about this variant: RLRTTITPEQLEILYQKYLLDSNPTRDMLDHIAHEVGLKKRVVQVWFQNTRARERK [K27D]
(A) HIGH

(Q) How about this variant: RLRTTITPEQLEILYQKYLYDSNPTRKMLDHIAHEVGLKKRVVQVWFQNTRARERK [L20Y]
(A) LOW

(Q) How about this variant: RLRTTITPEQLEILYQKYLLDSNPTRKMLDHIAHEVGLKKRVVQVYFQNTRARERK [W46Y]
(A) MEDIUM

(Q) How about this variant: RLRTTITPEQLEILYQKYLKDSNPTRKMLDHIAHEVGLKKRVVQVWFQNTRARERK [L20K]
(A) MEDIUM

(Q) How about this variant: RLRTTITPEQLEILYQKYLLDSNPTRKMLAHIAHEVGLKKRVVQVWFQNTRARERK [D30A]
(A) HIGH

(Q) How about this variant: RLRTTITPEQLEILYQKYLLDSNPTRKMLDHIAHIVGLKKRVVQVWFQNTRARERK [E35I]
(A) HIGH

(Q) How about this variant: RLRTTITPEQLFILYQKYLLDSNPTRKMLDHIAHEVGLKKRVVQVWFQNTRARERK [E12F]
(A) MEDIUM

(Q) How about this variant: RLRTTITPEQLEILYQKYLLDSCPTRKMLDHIAHEVGLKKRVVQVWFQNTRARERK [N23C]
(A) LOW

(Q) How about this variant: RLRTTITPEQLEILYQKYLLDSNPTRKMLDHIAHEVGLKKRVVQVWFQNTRAAERK [R53A]
(A) HIGH

(Q) How about this variant: RLRTTITPEQLEILYQKYLLDSNPTRKMLDHIAHEVGLKKRVVQVWFQNMRARERK [T50M]
(A) HIGH

(Q) How about this variant: RLRTTITPEQLEILYQKYLLDSNPTRKMLDHIAHEVGLKKRVVQVWFQNSRARERK [T50S]
(A) MEDIUM

(Q) How about this variant: RLRTTITPEQLEILYQKYLLDSNPTRKMLDHIAHEVGEKKRVVQVWFQNTRARERK [L38E]
(A) LOW
